# System: UACC-62 melanoma
# test method notes: NCI tumour cell line growth inhibition, 48 h
metric name: TGI

- compound: "CN1CCN([C@H]2C[C@H]3[C@@H]4CC=C5C[C@@H](N6CCCC6)CC[C@]5(C)[C@H]4CC[C@]3(C)[C@H]2O)CC1"
  obs value: "> 100 µM"
- compound: "CN(C)Cc1cc(N=Nc2ccccc2)ccc1O"
  obs value: "69.2 µM"
- compound: "COc1cc(C(=O)NC(CCN)(c2ccccc2)c2ccccc2)cc(OC)c1OC"
  obs value: "> 31.6 µM"
- compound: "O=C(N/N=C/c1ccccc1O)c1ccccc1O"
  obs value: "> 100 µM"
- compound: "C/C1=C\\[C@H](C)C[C@H](C)OC(=O)C[C@H](c2ccc(O)cc2)NC(=O)[C@H](Cc2ccc(O)c(I)c2)N(C)C(=O)[C@H](C)NC(=O)[C@@H](C)C1"
  obs value: "8.77 µM"
- compound: "C=C1OC(=O)[C@]2([C@@H](/C=C/C)C=CC(=O)[C@H]2O)[C@@H]1O"
  obs value: "> 100 µM"
- compound: "Cc1cc(O)c(C=O)c2c1C(=O)Oc1c(CO)c(O)c3c(c1O2)C(O)OC3=O (configuration not stated)"
  obs value: "> 100 µM"

---

Reported TGI is given for each of the following molecules.
# System: ACHN renal
# test method notes: NCI tumour cell line growth inhibition, 48 h
metric name: TGI

- molecule: "CN1C2CCC1CC(CC(=O)NC(c1ccc(F)cc1)c1ccc(F)cc1)C2 (stereo unspecified)"
  obs value: "> 100 µM"
- molecule: "CN1C(=O)CC2CCCN2C1=O (stereo unspecified)"
  obs value: "> 100 µM"
- molecule: "CCOC(=O)c1sc2nc(SC)nc3c2c1NCN3C1CC1"
  obs value: "> 100 µM"
- molecule: "CCOC(=O)N1C/C(=C/c2ccc(F)cc2)C(=O)/C(=C/c2ccc(F)cc2)C1"
  obs value: "3.42 µM"
- molecule: "COc1ccc(C2=C3c4cc(OC)c(OC)cc4CCN3C(=S)SS2)cc1OC"
  obs value: "> 100 µM"
- molecule: "O=C(Oc1ccc(S(=O)(=O)F)cc1F)c1ccccc1Cl"
  obs value: "> 100 µM"
- molecule: "CCN(CC)C(=S)N/N=C(\\C)c1cccc(C)n1"
  obs value: "1.92 µM"
- molecule: "C#C[C@]1(O)CC[C@H]2[C@@H]3CCC4=CC(=NCCOC(=O)c5cccc6cc7ccccc7nc56)CC[C@@H]4[C@H]3CC[C@@]21C"
  obs value: "> 100 µM"
- molecule: "CCN(CC)Cc1cc(Nc2c3ccccc3nc3c4ccccc4n(C)c23)cc(CN(CC)CC)c1O"
  obs value: "13.8 µM"
- molecule: "N=C(N)N=Nc1ccc(NN=C(N)N)c2c1ncc1c2nc2sccn21"
  obs value: "51.3 µM"
- molecule: "CCOc1nc(-c2ccccc2)cc2c(O)c(C(=O)N/N=C/c3ccc(O)cc3O)[nH]c(=O)c12"
  obs value: "> 35.5 µM"

---

Overview of recorded log10 TGI for various compounds
# Test system: MDA-MB-435
# test method notes: NCI tumour cell line growth inhibition, 48 h
metric name: log10 TGI (log10 of the value in µM)

- compound: "O=[N+]([O-])c1ccccc1S(=O)(=O)c1cc(O)cc2c1NCCC2"
  log10 TGI: 1.62
- compound: "O=C1Nc2cc(Cl)ccc2/C1=C\\c1c(-c2ccc(F)cc2)nc2ccccn12"
  log10 TGI: -0.28
- compound: "CC12CCC(C(Br)(Br)C1=O)C2(C)C (centres undefined)"
  log10 TGI: 0.35
- compound: "COc1cc(C=O)cc(/C=N/c2ccccn2)c1O"
  log10 TGI: 1.62
- compound: "O=C(Nc1cccc(-n2cc(-c3ccncc3)c(-c3ccc(Cl)c(O)c3)n2)c1)Nc1ccc(Cl)c(C(F)(F)F)c1"
  log10 TGI: 0.22
- compound: "CCOC(=O)N1C/C(=C/c2ccc(F)cc2)C(=O)/C(=C/c2ccc(F)cc2)C1"
  log10 TGI: 0.57
- compound: "C/C1=C\\[C@H](C)C[C@H](C)OC(=O)C[C@H](c2ccc(O)cc2)NC(=O)[C@H](Cc2ccc(O)c(I)c2)N(C)C(=O)[C@H](C)NC(=O)[C@@H](C)C1"
  log10 TGI: 0.71
- compound: "N=C(N)N=Nc1ccc(NN=C(N)N)c2c1ncc1c2nc2sccn21"
  log10 TGI: 1.72
- compound: "Cc1ccc2nc(-c3ccc(N)c(Br)c3)sc2c1"
  log10 TGI: 1.81
- compound: "COc1cc(/C=C2\\C(=O)N(c3cc(Cl)ccc3Cl)C(c3ccccc3)S2(=O)=O)cc(OC)c1OC (centres undefined)"
  log10 TGI: 1.98
